tested on: K86415-001-R-J1-PDC complex spheroids, viability; assay: Anticancer human tumor K86415-001-R-J1-PDC patient-derived lung adenocarcinoma cell line growth inhibition [RAS]; conditions: second compound 0.3 µM; first compound 3.16 µM; stronger effect = lower value
recorded-metric: viability, T/C (%)

>>> measured_result("CC(C)NCC(C(=O)N1CCN(c2ncnc3c2C(C)CC3O)CC1)c1ccc(Cl)cc1 (stereo not drawn) + CCn1c(-c2cc(N3CCN(C)CC3)cnc2C(C)OC)c2c3cc(ccc31)-c1csc(n1)CC(NC(=O)C1CC1C)C(=O)N1CCCC(N1)C(=O)OCC(C)(C)C2")
0.75
>>> measured_result("CC(=O)OC12COC1CC(O)C1(C)C(=O)C(O)C3=C(C)C(OC(=O)C(O)C(NC(=O)OC(C)(C)C)c4ccccc4)CC(O)(C(OC(=O)c4ccccc4)C21)C3(C)C (stereo not drawn) + CCn1c(-c2cccnc2C(C)OC)c2c3cc(ccc31)N1CCOC(CC(NC(=O)C(C(C)C)N(C)C(=O)C3(F)CCN(C(=O)C#CC(C)(C)N(C)C)CC3)C(=O)N3CCCC(N3)C(=O)OCC(C)(C)C2)C1")
6.82
>>> measured_result("CC(Nc1ccc2c(c1)OCCn1cc(N3C(=O)OCC3C(F)F)nc1-2)C(N)=O (stereo not drawn) + CCn1c(-c2cc(N3CCN(C)CC3)cnc2C(C)OC)c2c3cc(ccc31)-c1csc(n1)CC(NC(=O)C1CC1C)C(=O)N1CCCC(N1)C(=O)OCC(C)(C)C2")
0.85

---

Reported viability, T/C by item:
system: K86415-001-R-J1-PDC complex spheroids, viability; experiment: Anticancer human tumor K86415-001-R-J1-PDC cell line growth inhibition [RAS]; settings: second compound 0.1 µM; first compound 0.0316 µM; stronger effect = lower value;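 also: spheroids exposed to agents for seven days before readout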
recorded-metric: viability, T/C (%)

>>> measured_result("CC1(O)CCCC1n1c(=O)c(C(F)F)cc2cnc(NC3CCN(S(C)(=O)=O)CC3)nc21 (stereo not given) + C#Cc1c(F)ccc2cc(O)cc(-c3ncc4c(N5CC6CCC(C5)N6)nc(OCC56CCCN5CC(F)C6)nc4c3F)c12")
78.2
>>> measured_result("CCC(CC)c1cc(NC2CCC(N)C2)n2nccc2n1 (stereo not given) + C=CC(=O)N1CCN(c2nc(OCC3CCCN3C)nc3c(F)c(-c4nc(N)cc(C)c4C(F)(F)F)c(Cl)cc23)C(C)C1")
10.3
>>> measured_result("C[C@@H](NC(=O)c1ncnc(N)c1Cl)c1ncc(C(=O)Nc2cc(C(F)(F)F)c(Cl)cn2)s1 + C=CC(=O)N1CCN(c2nc(OCC3CCCN3C)nc3c(F)c(-c4nc(N)cc(C)c4C(F)(F)F)c(Cl)cc23)C(C)C1")
13.1
>>> measured_result("CCN1CCN(Cc2ccc(Nc3ncc(F)c(-c4cc(F)c5nc(C)n(C(C)C)c5c4)n3)nc2)CC1 + C=CC(=O)N1CCN(c2nc(OCC3CCCN3C)nc3c(F)c(-c4nc(N)cc(C)c4C(F)(F)F)c(Cl)cc23)C(C)C1")
9.47
>>> measured_result("O=C(c1ccc(F)c(F)c1Nc1ccc(I)cc1F)N1CC(O)([C@@H]2CCCCN2)C1 + C#Cc1c(F)ccc2cc(O)cc(-c3ncc4c(N5CC6CCC(C5)N6)nc(OCC56CCCN5CC(F)C6)nc4c3F)c12")
61.3
>>> measured_result("CC(C)n1nc(-c2ccc3oc(N)nc3c2)c2c(N)ncnc21 + C#Cc1c(F)ccc2cc(O)cc(-c3ncc4c(N5CC6CCC(C5)N6)nc(OCC56CCCN5CC(F)C6)nc4c3F)c12")
62.4
>>> measured_result("CC(Nc1ccc2c(c1)OCCn1cc(N3C(=O)OCC3C(F)F)nc1-2)C(N)=O (stereo not given) + C#Cc1c(F)ccc2cc(O)cc(-c3ncc4c(N5CC6CCC(C5)N6)nc(OCC56CCCN5CC(F)C6)nc4c3F)c12")
90.3
>>> measured_result("CC(C)NCC(C(=O)N1CCN(c2ncnc3c2C(C)CC3O)CC1)c1ccc(Cl)cc1 (stereo not given) + C=CC(=O)N1CCN(c2nc(OCC3CCCN3C)nc3c(F)c(-c4nc(N)cc(C)c4C(F)(F)F)c(Cl)cc23)C(C)C1")
17.1
>>> measured_result("Nc1ccn(C2OC(CO)C(O)C2(F)F)c(=O)n1 (stereo not given) + C=CC(=O)N1CCN(c2nc(OCC3CCCN3C)nc3c(F)c(-c4nc(N)cc(C)c4C(F)(F)F)c(Cl)cc23)C(C)C1")
9.05
>>> measured_result("CCN1CCN(Cc2ccc(Nc3ncc(F)c(-c4cc(F)c5nc(C)n(C(C)C)c5c4)n3)nc2)CC1 + C#Cc1c(F)ccc2cc(O)cc(-c3ncc4c(N5CC6CCC(C5)N6)nc(OCC56CCCN5CC(F)C6)nc4c3F)c12")
72.3

---

System: K86415-001-R-J1-PDC complex spheroids, viability
Assay: Anticancer human tumor K86415-001-R-J1-PDC cell line growth inhibition [RAS];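 also: spheroids exposed to agents for seven days before readout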
Details: second compound 0.1 µM; first compound 10 µM; stronger effect = lower value
From the text: RAS pathway inhibitors in Combinations in Complex Spheroids A high-throughput screen of multi-cell type tumor spheroids was designed to identify active combinations of RAS pathway inhibitors and targeted small molecules. Complex spheroids include a stromal component modeled by human endothelial cells (HUVEC) and fibroblasts modeled by human mesenchymal stem cells (MSCs). […] Compounds. […] If the clinical Cmax for an agent had not been determined, the highest concentration tested was 10 microM. […]
recorded-metric: viability, T/C

>>> measured_result("CC(C)NCC(C(=O)N1CCN(c2ncnc3c2C(C)CC3O)CC1)c1ccc(Cl)cc1 (stereo not drawn) + C=CC(=O)N1CCN(c2nc(OCC3CCCN3C)nc3c(F)c(-c4nc(N)cc(C)c4C(F)(F)F)c(Cl)cc23)C(C)C1")
"2.96%"
>>> measured_result("CC1(O)CCCC1n1c(=O)c(C(F)F)cc2cnc(NC3CCN(S(C)(=O)=O)CC3)nc21 (stereo not drawn) + C#Cc1c(F)ccc2cc(O)cc(-c3ncc4c(N5CC6CCC(C5)N6)nc(OCC56CCCN5CC(F)C6)nc4c3F)c12")
"8.13%"
>>> measured_result("C[C@@H](NC(=O)c1ncnc(N)c1Cl)c1ncc(C(=O)Nc2cc(C(F)(F)F)c(Cl)cn2)s1 + C#Cc1c(F)ccc2cc(O)cc(-c3ncc4c(N5CC6CCC(C5)N6)nc(OCC56CCCN5CC(F)C6)nc4c3F)c12")
"56.8%"

---

system: K86415-001-R-J1-PDC complex spheroids, viability; assay: Anticancer human tumor K86415-001-R-J1-PDC cell line growth inhibition [RAS]; details: curve of first compound; second compound 0.0949 µM;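 also: spheroids exposed to agents for seven days before readout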
pIC50: −log10 of the molar value.
Here, each record is paired with measured pIC50 data.
recorded-metric: pIC50

>>> measured_result("NC1c2ccccc2OC12CCN(c1cnc3c(N4CCCc5ncccc54)n[nH]c3n1)CC2 (stereo not drawn) + CCn1c(-c2cccnc2C(C)OC)c2c3cc(ccc31)N1CCOC(CC(NC(=O)C(C(C)C)N(C)C(=O)C3(F)CCN(C(=O)C#CC(C)(C)N(C)C)CC3)C(=O)N3CCCC(N3)C(=O)OCC(C)(C)C2)C1")
"> 7.50"
>>> measured_result("C=CC(=O)N1CCN(c2nc(OCC3CCCN3C)nc3c(F)c(-c4nc(N)cc(C)c4C(F)(F)F)c(Cl)cc23)C(C)C1 (stereo not drawn) + CCn1c(-c2cc(N3CCN(C)CC3)cnc2C(C)OC)c2c3cc(ccc31)-c1csc(n1)CC(NC(=O)C1CC1C)C(=O)N1CCCC(N1)C(=O)OCC(C)(C)C2")
"> 8.50"
>>> measured_result("C=CC(=O)N1CCN(c2nc(OCC3CCCN3C)nc3c(F)c(-c4nc(N)cc(C)c4C(F)(F)F)c(Cl)cc23)C(C)C1 (stereo not drawn) + CCn1c(-c2cccnc2C(C)OC)c2c3cc(ccc31)N1CCOC(CC(NC(=O)C(C(C)C)N(C)C(=O)C3(F)CCN(C(=O)C#CC(C)(C)N(C)C)CC3)C(=O)N3CCCC(N3)C(=O)OCC(C)(C)C2)C1")
"> 8.50"

---

system: K86415-001-R-J1-PDC complex spheroids, viability; assay: Anticancer human tumor K86415-001-R-J1-PDC cell line growth inhibition [RAS]; details: second compound 0.03 µM; first compound 0.316 µM; active = viability on the fitted dose curve at most 10% of control; inactive = the rest;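 also: spheroids exposed to agents for seven days before readout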
Labels: t for active, f for inactive

>>> discrete_label("CC(=O)OC12COC1CC(O)C1(C)C(=O)C(O)C3=C(C)C(OC(=O)C(O)C(NC(=O)OC(C)(C)C)c4ccccc4)CC(O)(C(OC(=O)c4ccccc4)C21)C3(C)C (stereo unspecified) + CCn1c(-c2cc(N3CCN(C)CC3)cnc2C(C)OC)c2c3cc(ccc31)-c1csc(n1)CC(NC(=O)C1CC1C)C(=O)N1CCCC(N1)C(=O)OCC(C)(C)C2")
"t"
>>> discrete_label("C=CC(=O)N1CCN(c2nc(OCC3CCCN3C)nc3c(F)c(-c4nc(N)cc(C)c4C(F)(F)F)c(Cl)cc23)C(C)C1 (stereo unspecified) + CCn1c(-c2cc(N3CCN(C)CC3)cnc2C(C)OC)c2c3cc(ccc31)-c1csc(n1)CC(NC(=O)C1CC1C)C(=O)N1CCCC(N1)C(=O)OCC(C)(C)C2")
"t"
>>> discrete_label("C=CC(=O)N1CCN(c2nc(OCC3CCCN3C)nc3c(F)c(-c4nc(N)cc(C)c4C(F)(F)F)c(Cl)cc23)C(C)C1 (stereo unspecified) + CCn1c(-c2cccnc2C(C)OC)c2c3cc(ccc31)N1CCOC(CC(NC(=O)C(C(C)C)N(C)C(=O)C3(F)CCN(C(=O)C#CC(C)(C)N(C)C)CC3)C(=O)N3CCCC(N3)C(=O)OCC(C)(C)C2)C1")
"f"
>>> discrete_label("CC(C)NCC(C(=O)N1CCN(c2ncnc3c2C(C)CC3O)CC1)c1ccc(Cl)cc1 (stereo unspecified) + CCn1c(-c2cc(N3CCN(C)CC3)cnc2C(C)OC)c2c3cc(ccc31)-c1csc(n1)CC(NC(=O)C1CC1C)C(=O)N1CCCC(N1)C(=O)OCC(C)(C)C2")
"t"
>>> discrete_label("Nc1ccn(C2OC(CO)C(O)C2(F)F)c(=O)n1 (stereo unspecified) + CCn1c(-c2cc(N3CCN(C)CC3)cnc2C(C)OC)c2c3cc(ccc31)-c1csc(n1)CC(NC(=O)C1CC1C)C(=O)N1CCCC(N1)C(=O)OCC(C)(C)C2")
"t"
>>> discrete_label("CCC(CC)c1cc(NC2CCC(N)C2)n2nccc2n1 (stereo unspecified) + CCn1c(-c2cccnc2C(C)OC)c2c3cc(ccc31)N1CCOC(CC(NC(=O)C(C(C)C)N(C)C(=O)C3(F)CCN(C(=O)C#CC(C)(C)N(C)C)CC3)C(=O)N3CCCC(N3)C(=O)OCC(C)(C)C2)C1")
"f"

Ref: PubChem BioAssay AID2060893
